Values compiled from patent US20040024024A1.

- subject of test: Human recombinant MMP-9 (Homo sapiens)
- Construct: made in house; host or cells: MMP-9-transfected HT1080 cells (spent media)
- Sequence (P14780 107-707 limits assumed): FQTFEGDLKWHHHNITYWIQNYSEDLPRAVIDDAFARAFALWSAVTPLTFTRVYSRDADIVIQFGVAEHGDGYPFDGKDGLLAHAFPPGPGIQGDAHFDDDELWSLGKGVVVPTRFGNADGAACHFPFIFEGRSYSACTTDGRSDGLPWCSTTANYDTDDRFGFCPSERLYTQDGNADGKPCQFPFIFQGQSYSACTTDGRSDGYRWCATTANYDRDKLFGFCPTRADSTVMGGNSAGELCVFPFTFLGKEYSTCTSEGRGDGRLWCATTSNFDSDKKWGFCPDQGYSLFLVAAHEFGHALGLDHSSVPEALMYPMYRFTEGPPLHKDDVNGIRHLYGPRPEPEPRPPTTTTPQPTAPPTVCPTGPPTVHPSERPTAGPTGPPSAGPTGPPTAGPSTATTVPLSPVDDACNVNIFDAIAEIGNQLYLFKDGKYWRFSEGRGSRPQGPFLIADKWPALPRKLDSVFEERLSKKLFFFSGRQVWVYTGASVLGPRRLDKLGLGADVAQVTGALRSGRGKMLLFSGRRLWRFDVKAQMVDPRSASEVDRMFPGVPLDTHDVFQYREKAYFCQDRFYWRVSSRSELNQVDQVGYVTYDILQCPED
- test name: In vitro MMP inhibition, Ki determination (fluorogenic substrate II)
- Type: biochemical
- condition notes: value in parenthesis
pKi: −log10 of the molar value.
measured quantity: pKi

| compound | pKi |
| --- | --- |
| O=C(NO)C1(S(=O)(=O)c2ccc(OCCCc3cccc(Cc4ccccc4)c3)cc2)CCOCC1 [Example 98] | 5.84 |
| O=C(NO)C1(S(=O)(=O)c2ccc(OCCc3cccc(-c4cc(F)cc(F)c4)c3)cc2)CCOCC1 [Example 110] | 5.36 |
| O=C(NO)C1(S(=O)(=O)c2ccc(OCCCc3ccnc(-c4ccccc4)c3)cc2)CCOCC1 [Example 197] | 6.48 |
| O=C(NO)C1(S(=O)(=O)c2ccc(OCCCc3cccc(-c4ccc(Cl)c(Cl)c4)c3)cc2)CCOCC1 [Example 169] | 5.19 |
| COCCN1CCC(C(=O)NO)(S(=O)(=O)c2ccc(OCCCc3nc(-c4ccc(OC(F)(F)F)cc4)no3)cc2)CC1 [Example 190] | 6.17 |
| Cc1cc(OC(F)(F)F)ccc1NC(=O)CCCOc1ccc(S(=O)(=O)C2(C(=O)NO)CCOCC2)cc1 [Example 229] | 6.55 |

(a) O=C(NO)C1(S(=O)(=O)c2ccc(OCCCc3nc(-c4ccc(OC(F)(F)F)cc4)no3)cc2)CCN(Cc2ccccc2)CC1 [Example 93]
(b) COCCN1CCC(C(=O)NO)(S(=O)(=O)c2ccc(OCCCc3nc(-c4ccccc4OC(F)(F)F)no3)cc2)CC1 [Example 152]
[ask] Please let me know which one, a or b , has a lower measured pKi value. Answer with the label corresponding to your selection.
[reply] a

(P) COCCN1CCC(C(=O)NO)(S(=O)(=O)c2ccc(OCCCc3nc(-c4ccc(CC(C)C)cc4)no3)cc2)CC1 [Example 175]
(Q) O=C(NO)C1(S(=O)(=O)c2ccc(OCCc3cccc(-c4cccc(F)c4)c3)cc2)CCOCC1 [Example 111]
[ask] Out of P and Q , name the one with the higher pKi. Answer with the label corresponding to your selection.
[reply] P
(P: 5.86, Q: 5.57)
